Measured values drawn from patent EP4793274A1 for this set.

# ASSAY_DETAILS: Dynamic solubility at 37 °C in H2O, SGF, FaSSIF and FeSSIF (HPLC concentration, pH of filtrate, XRPD of residual solid)
# Format: physicochemical
# CONDITION_DETAILS: FaSSIF, 1 h, feeding concentration 10 mg/mL, read-out: S: solubility
Counter-ions that a name gives are not always drawn.
OBSERVED_PROPERTY: solubility at 1 h (µg/mL)
The answer is to be given in µg/mL; state only the numeric part.

Ask: Which solubility at 1 h reading was recorded for the compound Cc1cc(-c2cnn(-c3ccc(NS(=O)(=O)CCO)cc3N3CCC4(CC3)CC4)c2)nc(N2CCC(F)(F)CC2)n1 [crystal form B of the sulfate] ?
Result: 53.9

----------
# SYSTEM_UNDER_TEST: recombinant protein KIF18A (kinesin domain: aa 1-467) (Homo sapiens)
# Construct: KIF18A (kinesin domain: aa 1-467)
# Sequence (Q8NI77 1-467): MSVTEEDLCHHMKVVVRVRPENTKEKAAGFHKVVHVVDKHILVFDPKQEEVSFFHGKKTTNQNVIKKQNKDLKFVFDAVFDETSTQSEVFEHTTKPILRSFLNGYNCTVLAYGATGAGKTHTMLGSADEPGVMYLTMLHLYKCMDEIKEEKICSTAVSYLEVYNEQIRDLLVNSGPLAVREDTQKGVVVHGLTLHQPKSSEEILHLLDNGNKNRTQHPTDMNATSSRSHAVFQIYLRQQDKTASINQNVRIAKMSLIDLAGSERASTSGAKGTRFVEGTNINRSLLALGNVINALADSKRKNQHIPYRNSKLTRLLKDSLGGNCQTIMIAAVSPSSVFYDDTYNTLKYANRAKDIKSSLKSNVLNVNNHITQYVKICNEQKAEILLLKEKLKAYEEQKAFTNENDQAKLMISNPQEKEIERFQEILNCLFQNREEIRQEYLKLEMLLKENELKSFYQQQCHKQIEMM
# ASSAY_DETAILS: Inhibition of KIF18A enzymatic activity (ADP-Glo kinase assay kit)
# CONDITION_DETAILS: KIF18A 80 nM, ATP 80 µM, 3 h at room temperature, luminescence
OBSERVED_PROPERTY: IC50 (nM)
The answer is to be given in nM; state only the numeric part.

Ask: Which IC50 reading was recorded for the molecule Cc1cc(-c2cnn(-c3ccc(NS(=O)(=O)CCO)cc3N3CCC4(CC3)CC4)c2)nc(N2CCC(F)(F)CC2)n1 [compound of formula I] ?
Result: 11

----------
# ASSAY_DETAILS: Dynamic solubility at 37 °C in H2O, SGF, FaSSIF and FeSSIF (HPLC concentration, pH of filtrate, XRPD of residual solid)
# Assay type: physicochemical
# CONDITION_DETAILS: SGF, 2 h, feeding concentration 10 mg/mL, read-out: S: solubility
Counter-ions that a name gives are not always drawn.
OBSERVED_PROPERTY: solubility at 2 h (mg/mL)
The answer is to be given in mg/mL; state only the numeric part.

Ask: Which solubility at 2 h reading was recorded for the compound Cc1cc(-c2cnn(-c3ccc(NS(=O)(=O)CCO)cc3N3CCC4(CC3)CC4)c2)nc(N2CCC(F)(F)CC2)n1 [crystal form B of the sulfate] ?
Result: 0.0824

----------
# ASSAY_DETAILS: Dynamic solubility at 37 °C in H2O, SGF, FaSSIF and FeSSIF (HPLC concentration, pH of filtrate, XRPD of residual solid)
# Assay type: physicochemical
# CONDITION_DETAILS: water, H2O, 4 h, feeding concentration 10 mg/mL, read-out: S: solubility
Structures can show the parent of a compound that is named as a salt.
OBSERVED_PROPERTY: solubility at 4 h

Ask: Which solubility at 4 h reading was recorded for the compound Cc1cc(-c2cnn(-c3ccc(NS(=O)(=O)CCO)cc3N3CCC4(CC3)CC4)c2)nc(N2CCC(F)(F)CC2)n1 [crystal form B of the sulfate] ?
Result: 11.1 µg/mL

----------
# ASSAY_DETAILS: Dynamic solubility at 37 °C in H2O, SGF, FaSSIF and FeSSIF (HPLC concentration, pH of filtrate, XRPD of residual solid)
# Assay type: physicochemical
# CONDITION_DETAILS: FaSSIF, 24 h, feeding concentration 10 mg/mL, read-out: S: solubility
Structures can show the parent of a compound that is named as a salt.
OBSERVED_PROPERTY: solubility at 24 h (µg/mL)
The answer is to be given in µg/mL; state only the numeric part.

Ask: Which solubility at 24 h reading was recorded for the compound Cc1cc(-c2cnn(-c3ccc(NS(=O)(=O)CCO)cc3N3CCC4(CC3)CC4)c2)nc(N2CCC(F)(F)CC2)n1 [crystal form B of the sulfate] ?
Result: 13.6
